System: Transplanted paddy rice plant
ASSAY_NOTES: Biological Test 1 (treatment on the 3rd day after transplantation): chemical injury to paddy rice
Type: in vivo
Design: scale not given here
RUN_PARAMETERS: Treatment performed 3 days after transplantation; dose 100 g/ha
Listing of entries alongside the reported Chemical injury, Transplanted paddy rice plant.
Form: value (number only, do not type unit).

# count of solved cases: 2
[[record]]
compound = "Cc1cc(C(=O)C2=C(S(=O)(=O)Cc3ccccc3)CCCC2=O)c(C)c2c1S(=O)(=O)CCC2OC(C)C (stereo not shown) [B-71]"
quantitative_readout = 0

[[record]]
compound = "O=C1CCCC(Br)=C1C(=O)c1ccc2c(c1Cl)CCS2(=O)=O [B-6]"
quantitative_readout = 0


response.value for Cc1cccc(SC2=C(C(=O)c3ccc4c(c3Cl)CCS4(=O)=O)C(=O)CCC2)c1 [B-15] (field: Chemical injury, Transplanted paddy rice plant) = 0

response.value for O=C1CCCC(S(=O)(=O)c2ccc(Br)cc2)=C1C(=O)c1ccc2c(c1Cl)CCS2(=O)=O [B-42] (field: Chemical injury, Transplanted paddy rice plant) = 0
